Tested on: anti-phospholipid autoantibodies, SLE PBMC
Assay: Anti-phospholipid autoantibody production in cultures of SLE PBMC (ELISA)
Type: cell-based
Details: Homo sapiens, N=8
Description: PBMCs were purified from human buffy coats using Ficoll-Paque method. CD19+ B cells were isolated from PBMC by following EasySep Human B cell enrichment cocktail protocol (StemCell Technologies Catalog #19054). Fresh B cell cocktail was prepared by adding 50 μg/mL of human transferrin to B cell medium (Iscove's medium with 10% PFBS, 1% P/S, and 5 μg/mL human insulin). The required volume of medium needed for the experiment was filtered through a 0.22 micron filter. […]
quantity: IC50

INPUT: Item O=C1CC[C@H](N2Cc3c(OCc4ccc(CN5CCOCC5)cc4)cccc3C2=O)C(=O)N1 [Compound 1A] has what recorded IC50?
OUTPUT: ~10 nM

###

Tested on: anti-dsDNA autoantibodies, SLE PBMC
Test: Anti-dsDNA autoantibody production in cultures of SLE PBMC (ELISA)
Format: cell-based
Details: Homo sapiens, N=9
quantity: IC50

INPUT: Param item = O=C1CC[C@H](N2Cc3c(OCc4ccc(CN5CCOCC5)cc4)cccc3C2=O)C(=O)N1 ; retrieve measured IC50.
OUTPUT: ~10 nM

Origin of the recorded values: patent US10980812B2
